# literature pull: Carbonic anhydrase 4 (Homo sapiens, UniProt P22748) log10 of Ki
# Sequence (P22748 whole entry): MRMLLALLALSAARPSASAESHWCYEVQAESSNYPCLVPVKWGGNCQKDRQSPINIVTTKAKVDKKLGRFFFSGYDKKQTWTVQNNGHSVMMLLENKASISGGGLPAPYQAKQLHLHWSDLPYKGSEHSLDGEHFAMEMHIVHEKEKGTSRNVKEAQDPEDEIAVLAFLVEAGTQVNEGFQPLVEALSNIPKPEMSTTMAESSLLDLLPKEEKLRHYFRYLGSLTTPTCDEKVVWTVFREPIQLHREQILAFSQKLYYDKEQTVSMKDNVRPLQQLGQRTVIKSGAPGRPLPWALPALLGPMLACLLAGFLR
measured.attribute: log10 of Ki (log10 of the value in µM)

compound | log10 of Ki
CC(C)(O)[C@@H]1CC[C@](C)([C@H]2[C@@H](O)C[C@@]3(C)C4C[C@H](O[C@@H]5OC[C@@H](O)C(O)[C@@H]5O)C5C(C)(C)[C@@H](O[C@@H]6OC[C@@H](O)C(O)[C@@H]6O)CC[C@@]56C[C@@]46CC[C@]23C)O1 (stereo not given in full) | 0.64
CS(=O)(=O)Oc1cccc(OS(C)(=O)=O)c1OS(C)(=O)=O | 1.65
Oc1cccc(O)c1O | -0.31
CC1(C)O[C@@H]2[C@@H](CC[C@@]3(COS(N)(=O)=O)OC(C)(C)O[C@@H]23)O1 | 0.69
Oc1cc(O)c2c(c1)O[C@H](c1ccc(O)c(O)c1)[C@H](O)C2 | 0.60
